system: HS 578T breast; assay: NCI tumour cell line growth inhibition, 48 h; in the data active = GI50 below about 0.43 µM; inactive = the rest
Entry note: the call must match one of active, inactive

Answer briefly: the call reported for `O=C(NCc1ccc(Cl)cc1Cl)c1ccc(NC2=C(Cl)C(=O)N(Cc3ccccc3)C2=O)cc1` in this assay.
inactive

// outcome(item) with item = `COc1cc2ncn(-c3cc(O[C@H](C)c4ccccc4Cl)c(C(N)=O)s3)c2cc1OC`
active

Tell me the assay call for `COc1cc(NCCCCCN=C(N)N)c2ncccc2c1` please.
inactive

Hello, I am checking results. What call was entered for `CCn1cc(C(=O)O)c(=O)c2cc(F)c(N3CCN(S(=O)(=O)c4ccc(Cl)cc4)CC3)cc21` ?
inactive

For `CN1CCc2c(c3ccccc3c3ccccc23)C1` , what call appears in the results of this test?
inactive

* * *

system: HOP-92 NSCLC; assay: NCI tumour cell line growth inhibition, 48 h
Measured quantity: TGI

TGI for CCOC(=O)C1(C)CCc2sc(N)c(C#N)c21 (stereo not given) is > 100 µM

Lab book: TGI of `COc1ccc(/C=N/c2nc3cc4sc(/N=C/c5ccc(OC)cc5)nc4cc3s2)cc1` noted as > 100 µM

For this molecule ( `ClCc1ccc(-c2ccc(Cn3cnc4nc(Cl)nc(Cl)c43)cc2)cc1` ), measured TGI is 8.78 µM

Record CN1C(=O)CC2CCCN2C1=O (stereo not given) , field TGI: > 100 µM

# TGI (molecule: `O=C(Nc1ccc(CN2CCOCC2)cc1)c1ccc(-c2cc(Cl)ccc2Cl)o1` ) is 33.7 µM

What the record says about `COc1cc(OC)cc(-n2c(N)c(C#N)c3ccc([N+](=O)[O-])cc3c2=O)c1` : TGI is 44.9 µM

According to the records, this molecule `CC(C)[C@]12O[C@H]1[C@@H]1O[C@@]13[C@@]1(C)CCC4=C(COC4=O)[C@@H]1C[C@@H]1O[C@@]13C2=O` displays TGI of 0.0829 µM

Lab note: `Cc1cc(C)c(S(=O)(=O)N2CCN(S(=O)(=O)c3c(C)cc(C)cc3C)OCCCCCO2)c(C)c1` gave TGI of > 100 µM

// sample `O=[N+]([O-])c1ccc(C2=NN(c3ccccc3)C[N+](c3ccc(Br)cc3)=N2)cc1` , its TGI was > 100 µM

The molecule `CCOC(=O)[C@H]1O[C@@H]1C(=O)N[C@@H](CC(C)C)C(=O)NCCc1ccc(O)cc1` showed TGI equal to > 100 µM

// TGI lookup, molecule = Cc1cc2ncn(C3CCCO3)c2cc1C (stereo not given) , result: > 100 µM

`COc1ccc(S(=O)(=O)N/N=C\c2cc([N+](=O)[O-])cc(I)c2O)c(OC)c1OC` yielded TGI of 37 µM

The recorded TGI for entry `COC(=O)c1cc(OC(C)=O)c2c(OC)ccc(OC)c2c1` equals > 100 µM

Reported TGI ( `O=P(O)(NCCCl)NCCCl` ) = > 100 µM

Briefly, TGI measured for `CCOc1nc(-c2ccccc2)cc2c(O)c(C(=O)N/N=C/c3ccc(O)cc3O)[nH]c(=O)c12` : > 100 µM

Per the records, this molecule ( COc1ccc(C2C(Cl)C(=O)N2NC(=O)c2ccc(N)cc2)cc1 (stereo not given) ) has TGI equal to > 100 µM

Lab note: `Cc1ccc(C(=O)Nc2ccccc2)cc1N=NN(C)C` gave TGI of > 100 µM

Form field TGI, entry `Cc1cc(N(CCC#N)CCC#N)ccc1/C=C\C(=O)Nc1ccccc1` : > 100 µM

Short answer for `N#C/C(=C\c1ccccc1)c1nc(-c2cc3ccccc3oc2=O)cs1` : TGI was > 100 µM

molecule `CN(C)N=Nc1ccccc1` , TGI observed: > 100 µM

TGI in this record for `O=C(O)c1cc(C(=O)O)nc(C(=O)O)c1` : > 100 µM

According to the records, this molecule COc1ccc(C2[C@H]3C(=O)N(c4ccc(Cc5ccc(N6C(=O)[C@@H]7ON(c8ccccc8)C(c8ccc(OC)cc8)[C@@H]7C6=O)cc5)cc4)C(=O)[C@H]3ON2c2ccccc2)cc1 (stereo not given in full) displays TGI of > 100 µM

For reference, reported TGI for `O=C(Oc1ccc(S(=O)(=O)F)cc1F)c1ccccc1Cl` stands at 65.1 µM

Noted for `Fc1cnc(NC2CC2)nc1-c1cnc2ccc(N3CCOCC3)cn12` : its TGI reads 0.461 µM

According to the records, this molecule `O=C(NC(=S)Nc1ccccc1)c1ccc([N+](=O)[O-])cc1` displays TGI of > 100 µM

Lab book: TGI of `Cc1ccc([N+](=O)[O-])cc1S(=O)(=O)Nc1ccc(C(=O)/C=C/c2cccs2)cc1` noted as > 100 µM

The recorded TGI for `CN1CCN(C(=S)N(C(=O)c2cccs2)C2CCCCC2)CC1` is > 100 µM

The recorded TGI for entry `CN1CCN([C@H]2C[C@H]3[C@@H]4CC=C5C[C@@H](N6CCCC6)CC[C@]5(C)[C@H]4CC[C@]3(C)[C@H]2O)CC1` equals > 100 µM

Given item `S=C(S)N1CCN(c2cccc(Cl)c2)CC1` , the value recorded as its TGI is > 100 µM

Lab note: `Cc1cc(NS(=O)(=O)c2ccc(NC(=O)c3cccn4c(=O)c5ccccc5nc34)cc2)no1` gave TGI of > 100 µM

* * *

test system: RXF 393 renal; assay: NCI tumour cell line growth inhibition, 48 h
Consider the following compounds; for each one, report its log10 TGI.
Please note: log10 values; quantity TGI; unit µM.

Query `COc1cc(C(=O)NC(CCN)(c2ccccc2)c2ccccc2)cc(OC)c1OC` yields log10 TGI of 1.44

CC(C)(C)OC(=O)C1C(=O)NC(=O)CC1CC(OCc1ccccc1)C(COCc1ccccc1)OCc1ccccc1 (stereo not given) has a reported log10 TGI of 0.95

Given item `COc1cc(C=O)cc(/C=N/c2ccccn2)c1O` , the value recorded as its log10 TGI is 0.70

Entry O=C1C2C(C(=O)N1c1ccccc1)C1(Br)c3ccccc3C2(Br)C2C(=O)N(c3ccccc3)C(=O)C21 (stereo not given) — recorded log10 TGI = 1.43

`CN(C)Cc1cc(N=Nc2ccccc2)ccc1O` yielded log10 TGI of 1.84

Form field log10 TGI, entry `Nc1nc(-c2ccccc2)c(Cl)c(-c2cc(Cl)ccc2O)n1` : 1.62

Briefly, log10 TGI measured for `CSC1=NN(c2ccccc2)C(=O)C1=C(SC)SC` : 1.80

The reported value for CCOP(=O)(O)C(Nc1ccc(N=Nc2ccccc2)cc1)c1ccc(C(Nc2ccc(N=Nc3ccccc3)cc2)P(=O)(O)OCC)cc1 (stereo not given) in terms of log10 TGI is 1.69

The recorded log10 TGI for `CN1CCN(CCCOc2ccc3nc(Nc4cc(Cl)cc(Cl)c4)ccc3c2)CC1` is 0.47

Data point: O=C(CC1C(=O)Nc2ccccc2S1=O)Nc1ccccc1 (stereo not given) ; log10 TGI = 1.65

For this compound ( CC(=O)O[C@H]1CCC2(C)C(=CCC3C2CCC2(C)/C(=N/OC(=O)c4ccc(N(CCCl)CCCl)cc4)CCC32)C1 (stereo not given in full) ), measured log10 TGI is 1.66

The reported value for `C(#Cc1cnccn1)/C=C\C#Cc1cnccn1` in terms of log10 TGI is 1.59

log10 TGI reading for CC12CCC(C(Br)(Br)C1=O)C2(C)C (stereo not given) : 0.40

Measured log10 TGI, `O=C(NCc1ccc(Cl)cc1Cl)c1ccc(NC2=C(Cl)C(=O)N(Cc3ccccc3)C2=O)cc1` : 1.72

Sure, the documented log10 TGI for `ClCc1ccc(-c2ccc(Cn3cnc4nc(Cl)nc(Cl)c43)cc2)cc1` is 0.70

log10 TGI in this record for `COc1cc(S(=O)(=O)Nc2nc(-c3ccc(N=Cc4cccs4)cc3)cs2)ccc1Cl` : 1.70

Sure, the documented log10 TGI for `CN(C)CCCOc1ccc(OCCCN(C)C)c2c1C(=O)c1ccccc1C2=O` is 0.57

# compound O=C1/C(=C\c2ccccc2)C2/C(=C\c3ccccc3)C(=O)/C(=C\c3ccccc3)C2/C1=C\c1ccccc1 (stereo not given) ; its log10 TGI = 0.50

Data point: `CCOc1nc(-c2ccccc2)cc2c(O)c(C(=O)N/N=C/c3ccc(O)cc3O)[nH]c(=O)c12` ; log10 TGI = 1.08

* * *

tested on: OVCAR-8 ovarian; test: NCI tumour cell line growth inhibition, 48 h; in the data active = GI50 below about 0.43 µM; inactive = the rest
*1 amine or outer side, *2 acyl side, *3 side chain or, on linkers, in order; H or OH if unused. Where a SMILES comes first, the peptide text is derived from it. Residues, ends and D or L forms follow the SMILES beside them. Bridges are numbered along the chain shown (N, C = ends). [ ]: non-standard residue; d: D form. *: point of attachment. Adda = CO[C@@H](Cc1ccccc1)[C@@H](C)/C=C(C)/C=C/[C@H](N[*:1])[C@H](C)C(=O)[*:2]; dAsp(3S-Me) = C[C@H](C(=O)[*:3])[C@@H](N[*:1])C(=O)[*:2]; d(γGlu) = O=C(O)[C@@H](CCC(=O)[*:2])N[*:1]; NMeDha = C=C(NC)C(=O)O; Boc = CC(C)(C)OC(=O)*
Give one outcome, nothing more. List: active, inactive

So what was the verdict on `CCN1CCN(c2cc(C)nc(N(CCNc3ccnc4cc(Cl)ccc34)Cc3ccc4c(c3)OCO4)n2)CC1` in this test?
inactive

Could you kindly confirm the outcome this assay logged for `COc1ccc(C(=O)c2cc(OC)c3c(c2)OCO3)cc1O` ?
active

// param item: `FC(F)(F)c1nnn[n-]1.[Au+].c1ccc([PH+](c2ccccc2)c2ccccc2)cc1` ; yields the recorded call
inactive

Per the records of this test, what outcome belongs to `O=C(Nc1ccc(CN2CCOCC2)cc1)c1ccc(-c2cc(Cl)ccc2Cl)o1` ?
inactive

Returns: the outcome recorded for `[Cl-].[Cl-].[Cl-].[O-]c1cccc2cccnc12.[O-]c1cccc2cccnc12.[O]=[Mo]` in this assay.
inactive

Test call for this compound, please: `N=C(N)N=Nc1ccc(NN=C(N)N)c2c1ncc1c2nc2sccn21`
inactive

Kindly provide the recorded test outcome for the following compound: `O=C(N/N=C/c1ccccc1O)c1ccccc1O`
inactive

Test call for this compound, please: CC(=O)O[C@H]1CCC2(C)C(=CCC3C2CCC2(C)/C(=N/OC(=O)c4ccc(N(CCCl)CCCl)cc4)CCC32)C1 (stereo partly specified)
inactive

Answer briefly: the call reported for `O=C1Nc2cc(Cl)ccc2/C1=C\c1c(-c2ccc(F)cc2)nc2ccccn12` in this assay.
inactive

Hi, sorry to bother you, what did the test record for COC(=O)CNC(=O)C(Cc1ccccc1)NC(=O)C(Cc1ccccc1)NC(=O)OC(C)(C)C (stereo not drawn) (Boc-Phe-Phe-Gly-OMe; configuration not given here) ?
inactive

Tell me the recorded outcome of this test for C=C1C(=O)N[C@H](C)C(=O)N[C@@H](CC(C)C)C(=O)N[C@@H](C(=O)O)[C@H](C)C(=O)N[C@@H](CCCN=C(N)N)C(=O)N[C@@H](/C=C/C(C)=C/[C@H](C)[C@H](Cc2ccccc2)OC)[C@H](C)C(=O)N[C@@H](C(=O)O)CCC(=O)N1C (R[Adda][d(γGlu)][NMeDha][dA]L[dAsp(3S-Me)]-OH; lactam N-7) .
inactive

Given `O=C1C=CC(=O)N1C1CCCCCCCCCCC1` , state the outcome it received in this test.
inactive

# outcome recorded in this test, key = `NCCN.NCCN.[Cl-].[O]=[Os+2]=[O]`
inactive

For `O=C(Nc1cccc(-n2cc(-c3ccncc3)c(-c3ccc(Cl)c(O)c3)n2)c1)Nc1ccc(Cl)c(C(F)(F)F)c1` , which call appears in the assay record?
inactive

Please let me know the test result on file for `O=c1c2cc(F)ccc2sc2c(N3CCNCC3)nc3ccccc3c12` .
inactive

I would be grateful if you could indicate the recorded call for CCc1ccc(CNCC(O)c2ccccc2)cc1 (stereo unspecified) .
inactive

Source: PubChem BioAssay (NCI)
